Listed here: items and their measured MIC Staphylococcus aureus-SMITH (GC 4543).
system: Staphylococcus sp.; experiment: In vitro antibacterial evaluation: minimum inhibitory concentration (MIC), broth dilution method; type: cell-based; details: Staphylococcus aureus-SMITH (GC 4543); broth dilution, 18 hours at 35° C.
Numbered stars: 1 amine (or outer) side, 2 acyl side, 3 side chain; on linkers, the order of the positions; unused ones are H or OH. Square brackets hold non-standard residues; d marks the D form. Peptide text beside a SMILES is read from it. * marks the point of attachment. ξ: configuration not given here. X1 = N=C1NCC(C(O)C(N[*:1])C(=O)[*:2])N1C1OC(CO)C(O)C(O)C1O; ξEnduracididine(βξ-OH,4'ξ) = N=C1NCC(C(O)C(N)C(=O)O)N1; ξPhe(4-Cl,βξ-Me) = CC(c1ccc(Cl)cc1)C(N)C(=O)O; X2 = OCC1OC(OC2C(CO)OC(*)C(O)C2O)C(O)C(O)C1O
Reply numerically in µg/mL, unit not repeated.

Before answering, review these 4 worked examples.
Ask: Fill in MIC Staphylococcus aureus-SMITH (GC 4543) for record CC(C)CCC(=O)OC1C(OC2C(CO)OC(Oc3ccc(CC4NC(=O)C(C(C)c5ccccc5)NC(=O)CNC(=O)C(CO)NC(=O)C(C(O)C5CNC(=N)N5C5OC(CO)C(O)C(O)C5O)NC(=O)C(C(O)C5CNC(=N)N5)NC4=O)cc3)C(O)C2O)OC(CO)C(O)C1O (stereo not shown) [Example 270a]
Result: 4

Ask: Fill in MIC Staphylococcus aureus-SMITH (GC 4543) for record CC(c1ccc(Cl)cc1)C1NC(=O)CNC(=O)C(CO)NC(=O)C(C(O)C2CNC(=N)N2C2OC(CO)C(O)C(O)C2O)NC(=O)C(C(O)C2CNC(=N)N2)NC(=O)C(Cc2ccc(OC3OC(CO)C(OC4OC(CO)C(O)C(O)C4O)C(O)C3O)cc2)NC1=O (stereo not drawn) [Example 262a] (cyclo(G[ξPhe(4-Cl,βξ-Me)]Y(X2)[ξEnduracididine(βξ-OH,4'ξ)][X1]S); configuration not given here)
Result: 64

Ask: Fill in MIC Staphylococcus aureus-SMITH (GC 4543) for record CC(C)C(=O)OCC1OC(OC2C(CO)OC(Oc3ccc(CC4NC(=O)C(Cc5ccccc5)NC(=O)CNC(=O)C(CO)NC(=O)C(C(O)C5CNC(=N)N5C5OC(CO)C(O)C(O)C5O)NC(=O)C(C(O)C5CNC(=N)N5)NC4=O)cc3)C(O)C2O)C(O)C(O)C1O (stereo not shown) [Example 283a]
Result: 64

Ask: Fill in MIC Staphylococcus aureus-SMITH (GC 4543) for record CC(C)CC(=O)OC1C(O)C(CO)OC(OC2C(CO)OC(Oc3ccc(CC4NC(=O)C(C(C)c5cccc(F)c5)NC(=O)CNC(=O)C(CO)NC(=O)C(C(O)C5CNC(=N)N5C5OC(CO)C(O)C(O)C5O)NC(=O)C(C(O)C5CNC(=N)N5)NC4=O)cc3)C(O)C2O)C1O (stereo not shown) [Example 264b]
Result: 8

Next:
Ask: Fill in MIC Staphylococcus aureus-SMITH (GC 4543) for record CC(C)CC(=O)OC1C(OC2C(CO)OC(Oc3ccc(CC4NC(=O)C(C(C)c5cccs5)NC(=O)CNC(=O)C(CO)NC(=O)C(C(O)C5CNC(=N)N5C5OC(CO)C(O)C(O)C5O)NC(=O)C(C(O)C5CNC(=N)N5)NC4=O)cc3)C(O)C2O)OC(CO)C(O)C1O (stereo not shown) [Example 265a]
Result: 8
